# measurement_description: AUC (0 to 8 hrs) in human at 150 mg, po TID administered on day 1 followed by 2-days wash out period after which dosing continued up to day 11 measured on day 4
# Format: ADME, organism-based
# Set-up: time < 8 hr, dose 150 mg, route oral
# assay_setup: plasma
reported_metric: AUC at 8 h (µM·h)
Give your result in µM·h as a bare value.

Briefly, AUC at 8 h measured for O=C(O)c1n[nH]c2c1C[C@H]1C[C@@H]21 : 0.0885

----------
Exercise: state measured half-life for each of the compounds provided.
# measurement_description: Terminal half life in Sprague-Dawley rat at 2 mg/kg, iv
# Assay type: ADME, organism-based
# Parameters: dose 2 mg/kg, route intravenous
# assay_setup: in vivo, read-out: beta t1/2 (converted)
Give your result in min as a bare value.

Briefly, half-life measured for C[C@@H]1[C@@H]2Cc3c(C(=O)O)n[nH]c3[C@H]12 : 144

Briefly, half-life measured for O=C(O)c1n[nH]c2c1C[C@H]1C[C@@H]21 : 144

Origin of values: ChEMBL document CHEMBL2057168
